test system: Candida; assay: Antimicrobial activity against Candida mycoderma by microbroth dilution method; type: functional
Catalogue of MIC values
Lab book: enter the figure in µg/mL, no units written.

Before answering, review these 5 worked examples.
# SMILES DATA, EXPERIMENTAL VALUE
data = [
    ("Cc1c(C(=O)NNCc2nc3ccccc3n2Cc2cccc(Cl)c2)sc(C(=O)NNCc2nc3ccccc3n2Cc2cccc(Cl)c2)c1C", 64),
    ("Cc1c(C(=O)NN)sc(C(=O)NN)c1C", 512),
    ("CCCCCCCCCCCCCCCCCCn1c(CNNC(=O)c2sc(C(=O)NNCc3nc4ccccc4n3CCCCCCCCCCCCCCCCCC)c(C)c2C)nc2ccccc21", 256),
    ("Cc1c(C(=O)NNCc2nc3ccccc3[nH]2)sc(C(=O)NNCc2nc3ccccc3[nH]2)c1C", 256),
    ("Cc1c(C(=O)NNCc2nc3ccccc3n2Cc2ccc(F)cc2)sc(C(=O)NNCc2nc3ccccc3n2Cc2ccc(F)cc2)c1C", 32),
]

Incoming: Any idea what MIC was measured for CCCCCCCCn1c(CNNC(=O)c2sc(C(=O)NNCc3nc4ccccc4n3CCCCCCCC)c(C)c2C)nc2ccccc21 ?
Outgoing: 4

Incoming: Any idea what MIC was measured for Cc1c(C(=O)NNCc2nc3ccccc3n2Cc2ccc(F)cc2F)sc(C(=O)NNCc2nc3ccccc3n2Cc2ccc(F)cc2F)c1C ?
Outgoing: 256

Incoming: Any idea what MIC was measured for CCCCCCCCCCn1c(CNNC(=O)c2sc(C(=O)NNCc3nc4ccccc4n3CCCCCCCCCC)c(C)c2C)nc2ccccc21.Cl ?
Outgoing: 4

Incoming: Any idea what MIC was measured for Cc1c(C(=O)NNCc2nc3ccccc3n2Cc2ccc(Cl)cc2)sc(C(=O)NNCc2nc3ccccc3n2Cc2ccc(Cl)cc2)c1C ?
Outgoing: 32

Incoming: Any idea what MIC was measured for CCCn1c(CNNC(=O)c2sc(C(=O)NNCc3nc4ccccc4n3CCC)c(C)c2C)nc2ccccc21 ?
Outgoing: 256

====

Catalogue of logP values
experiment: Lipophilicity, log P of the compound by UV-Vis spectrophotometric method based saturation shake flask assay; format: physicochemical; conditions: octanol/water; read-out: logP
Could you respond with only the numeric value?

Incoming: Any idea what logP was measured for CCCCCCCCn1c(CNNC(=O)c2sc(C(=O)NNCc3nc4ccccc4n3CCCCCCCC)c(C)c2C)nc2ccccc21 ?
Outgoing: 8.19

Incoming: Any idea what logP was measured for Cc1c(C(=O)NNCc2nc3ccccc3n2Cc2ccc(F)cc2)sc(C(=O)NNCc2nc3ccccc3n2Cc2ccc(F)cc2)c1C ?
Outgoing: 5.25

Incoming: Any idea what logP was measured for CCCCCCn1c(CNNC(=O)c2sc(C(=O)NNCc3nc4ccccc4n3CCCCCC)c(C)c2C)nc2ccccc21 ?
Outgoing: 6.62

Incoming: Any idea what logP was measured for Cc1c(C(=O)NNCc2nc3ccccc3n2Cc2ccc(F)cc2F)sc(C(=O)NNCc2nc3ccccc3n2Cc2ccc(F)cc2F)c1C ?
Outgoing: 4.96

Incoming: Any idea what logP was measured for Cc1c(C(=O)NNCc2nc3ccccc3n2Cc2ccccc2Cl)sc(C(=O)NNCc2nc3ccccc3n2Cc2ccccc2Cl)c1C ?
Outgoing: 6.25

Incoming: Any idea what logP was measured for Cc1c(C(=O)NN)sc(C(=O)NNCc2nc3ccccc3[nH]2)c1C ?
Outgoing: 0.84

Incoming: Any idea what logP was measured for CCCn1c(CNNC(=O)c2sc(C(=O)NNCc3nc4ccccc4n3CCC)c(C)c2C)nc2ccccc21 ?
Outgoing: 3.7

Incoming: Any idea what logP was measured for Cc1c(C(=O)NNCc2nc3ccccc3n2Cc2ccc(Cl)cc2)sc(C(=O)NNCc2nc3ccccc3n2Cc2ccc(Cl)cc2)c1C ?
Outgoing: 6.19

All figures here come from ChEMBL document CHEMBL2203243.
